target: α1H isoform of T type Ca2+ channels (Homo sapiens); assay: Inhibition of Ca2+ current through transfected α1H channels; conditions: FIG. 7
Sequence (O95180 whole entry, canonical isoform): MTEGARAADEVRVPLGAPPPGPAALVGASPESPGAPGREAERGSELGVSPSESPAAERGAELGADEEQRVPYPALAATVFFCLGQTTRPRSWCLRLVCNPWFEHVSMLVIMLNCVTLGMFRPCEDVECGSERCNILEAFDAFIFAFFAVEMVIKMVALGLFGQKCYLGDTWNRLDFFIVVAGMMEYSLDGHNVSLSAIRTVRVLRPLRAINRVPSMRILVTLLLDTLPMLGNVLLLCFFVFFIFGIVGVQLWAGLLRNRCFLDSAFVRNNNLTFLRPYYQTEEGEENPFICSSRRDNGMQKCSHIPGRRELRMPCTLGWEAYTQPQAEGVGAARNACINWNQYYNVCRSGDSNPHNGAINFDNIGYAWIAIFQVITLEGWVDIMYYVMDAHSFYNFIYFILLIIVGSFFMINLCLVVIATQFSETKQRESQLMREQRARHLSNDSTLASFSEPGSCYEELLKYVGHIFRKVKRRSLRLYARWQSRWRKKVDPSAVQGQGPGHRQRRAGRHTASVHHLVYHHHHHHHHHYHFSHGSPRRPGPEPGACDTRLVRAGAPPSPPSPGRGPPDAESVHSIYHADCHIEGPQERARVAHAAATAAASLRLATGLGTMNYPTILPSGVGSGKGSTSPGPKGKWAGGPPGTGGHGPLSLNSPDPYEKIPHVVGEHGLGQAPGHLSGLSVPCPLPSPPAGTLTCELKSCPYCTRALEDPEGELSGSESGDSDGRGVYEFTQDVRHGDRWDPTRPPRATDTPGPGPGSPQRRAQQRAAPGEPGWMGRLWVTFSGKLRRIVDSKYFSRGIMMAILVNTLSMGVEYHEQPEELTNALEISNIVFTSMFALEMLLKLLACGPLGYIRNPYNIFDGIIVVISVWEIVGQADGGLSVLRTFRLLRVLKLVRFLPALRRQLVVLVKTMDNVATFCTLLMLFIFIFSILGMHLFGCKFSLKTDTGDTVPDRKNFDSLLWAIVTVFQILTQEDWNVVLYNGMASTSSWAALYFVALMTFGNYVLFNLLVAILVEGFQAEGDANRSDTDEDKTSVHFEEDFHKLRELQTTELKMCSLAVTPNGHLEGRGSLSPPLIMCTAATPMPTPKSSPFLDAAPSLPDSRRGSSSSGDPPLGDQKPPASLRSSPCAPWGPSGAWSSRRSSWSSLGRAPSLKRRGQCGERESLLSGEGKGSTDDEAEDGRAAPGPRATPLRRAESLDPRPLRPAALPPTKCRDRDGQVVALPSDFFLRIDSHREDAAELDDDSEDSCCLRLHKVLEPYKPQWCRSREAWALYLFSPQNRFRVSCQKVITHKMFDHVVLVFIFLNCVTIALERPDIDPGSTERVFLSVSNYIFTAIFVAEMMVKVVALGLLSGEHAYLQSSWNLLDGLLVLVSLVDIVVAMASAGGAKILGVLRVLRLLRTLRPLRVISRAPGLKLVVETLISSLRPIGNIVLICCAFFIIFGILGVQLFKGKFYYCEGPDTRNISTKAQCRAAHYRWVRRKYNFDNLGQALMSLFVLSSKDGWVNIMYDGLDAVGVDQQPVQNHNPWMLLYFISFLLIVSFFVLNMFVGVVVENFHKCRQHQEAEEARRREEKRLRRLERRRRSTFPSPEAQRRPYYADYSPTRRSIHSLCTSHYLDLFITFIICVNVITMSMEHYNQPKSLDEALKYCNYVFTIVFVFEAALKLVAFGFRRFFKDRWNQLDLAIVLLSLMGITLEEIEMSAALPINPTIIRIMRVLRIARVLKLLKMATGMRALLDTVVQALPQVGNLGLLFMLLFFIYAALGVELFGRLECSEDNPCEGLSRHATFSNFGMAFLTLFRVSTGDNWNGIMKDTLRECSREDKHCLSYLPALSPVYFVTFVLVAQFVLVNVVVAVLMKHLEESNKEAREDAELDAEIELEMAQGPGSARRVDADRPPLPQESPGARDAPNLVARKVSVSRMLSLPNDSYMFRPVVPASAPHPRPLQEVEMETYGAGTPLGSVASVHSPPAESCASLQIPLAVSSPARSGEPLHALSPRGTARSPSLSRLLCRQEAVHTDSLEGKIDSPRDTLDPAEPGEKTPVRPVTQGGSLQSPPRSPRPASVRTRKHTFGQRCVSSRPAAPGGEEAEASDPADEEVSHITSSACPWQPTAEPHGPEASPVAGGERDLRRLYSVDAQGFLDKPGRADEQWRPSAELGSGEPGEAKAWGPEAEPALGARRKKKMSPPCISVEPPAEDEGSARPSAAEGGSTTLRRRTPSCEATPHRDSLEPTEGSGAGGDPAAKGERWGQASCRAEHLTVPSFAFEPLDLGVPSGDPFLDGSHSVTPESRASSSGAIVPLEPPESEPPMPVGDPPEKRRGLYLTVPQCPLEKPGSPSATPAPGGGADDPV
pIC50: −log10 of the molar value.
parameter: pIC50

A = COc1ccc(CCN2CCC[C@H]2COC(c2ccccc2)c2ccc(Cl)cc2)cc1 (some centres unmarked) [TH-1177]
B = COc1ccc(CCN2CCCC2COC(c2ccccc2)c2ccc(Cl)cc2)cc1 (centres unmarked) [TH-1211]
Prompt: Exercise: compare A and B ; which one has the greater pIC50? Could you answer with the label of the item you picked?
Response: A

====

test system: MDA-435 cells; experiment: Inhibition of proliferation of MDA-435 cells; type: cell-based; settings: MDA435, NE = no effect at highest concentration of drug tested, read-out: prolif: IC50 for inhibition of proliferation, MDA-435
Recorded pIC50 by entry
In simple prose, pIC50 is minus the logarithm base ten of a concentration in moles per litre.

// sample COc1ccc(CCCNCCOC(c2ccccc2)c2ccc(Cl)cc2)cc1 (stereo not shown) [Compound 3.4] , its pIC50 was 5.00

// sample COc1ccc(CNCc2ccccc2COC(c2ccccc2)c2ccc(Cl)cc2)cc1 (stereo not shown) [Compound 3.11] , its pIC50 was 4.66

// sample COc1ccc(CNCCCCOC(c2ccccc2)c2ccc(Cl)cc2)cc1 (stereo not shown) [Compound 3.2] , its pIC50 was 4.98

// sample COc1ccc(CCNCCOC(c2ccccc2)c2ccc(Cl)cc2)cc1 (stereo not shown) [Compound 3.8] , its pIC50 was 4.80

Next:
// sample COc1ccc(C(O)CCCCOC(c2ccccc2)c2ccc(Cl)cc2)cc1 (stereo not shown) [Compound 3.5] , its pIC50 was 4.19

====

system: PC3 cells; experiment: Inhibition of proliferation of PC3 cells; type: cell-based, human; details: Homo sapiens, PC-3; PC3; mM; read-out: prolif: IC50 for inhibition of proliferation, PC3
parameter: IC50

// sample COc1ccc(CCNc2ccccc2COC(c2ccccc2)c2ccc(Cl)cc2)cc1 (stereo not shown) [Compound 3.10] , its IC50 was > 1 mM

====

test system: Jurkat cells; test: Inhibition of calcium entry into Jurkat cells (indo-1 fluorescence); assay type: cell-based, human; conditions: Homo sapiens; Jurkat; NE = no effect at highest concentration of drug tested; read-out: Ca2+: IC50 for inhibition of calcium entry, Jurkat
parameter: IC50 (µM)

Recorded results for 5 compounds are shown here.
IC50 on Jurkat cells for COc1ccc(CNCc2ccccc2COC(c2ccccc2)c2ccc(Cl)cc2)cc1 (stereo not drawn) is 3.3

IC50 on Jurkat cells for COc1ccc(CCCNCCOC(c2ccccc2)c2ccc(Cl)cc2)cc1 (stereo not drawn) is 3

IC50 on Jurkat cells for COc1ccc(CCNCCCCC(c2ccccc2)c2ccc(Cl)cc2)cc1 (stereo not drawn) is 10

IC50 on Jurkat cells for COc1ccc(CNCCCCOC(c2ccccc2)c2ccc(Cl)cc2)cc1 (stereo not drawn) is 3

IC50 on Jurkat cells for COc1ccc(CCCCCNCC(c2ccccc2)c2ccc(Cl)cc2)cc1 (stereo not drawn) is 3

a = COc1ccc(COCCOC(c2ccccc2)c2ccc(Cl)cc2)cc1 (stereo not drawn)
b = COc1ccc(C(O)CCCCOC(c2ccccc2)c2ccc(Cl)cc2)cc1 (stereo not drawn)
Prompt: Exercise: compare a and b ; which one has the greater IC50? Could you answer with the label of the item you picked?
Response: a

====

system: Jurkat cells; experiment: Inhibition of proliferation of Jurkat cells; type: cell-based, human; conditions: Homo sapiens; Jurkat; NE = no effect at highest concentration of drug tested; read-out: prolif: IC50 for inhibition of proliferation, Jurkat
parameter: IC50 (µM)

IC50 on Jurkat cells for COc1ccc(CNCCCCOC(c2ccccc2)c2ccc(Cl)cc2)cc1 (centres unmarked) [Compound 3.2] is 3

IC50 on Jurkat cells for COc1ccc(CCCCCNCC(c2ccccc2)c2ccc(Cl)cc2)cc1 (centres unmarked) [Compound 3.22] is 13

IC50 on Jurkat cells for COc1ccc(CNCc2ccccc2COC(c2ccccc2)c2ccc(Cl)cc2)cc1 (centres unmarked) [Compound 3.11] is 5.4

I = COc1ccc(CCCNCCCC(c2ccccc2)c2ccc(Cl)cc2)cc1 (centres unmarked) [Compound 3.3]
II = COc1ccc(CCNCCCCC(c2ccccc2)c2ccc(Cl)cc2)cc1 (centres unmarked) [Compound 3.19]
III = COc1ccc(CCNCCOC(c2ccccc2)c2ccc(Cl)cc2)cc1 (centres unmarked) [Compound 3.8]
Prompt: Arrange items by their IC50 values in increasing order. Reply format: the labels, ordered as requested.
Response: II, III, I
(II: 4 µM, III: 7.5 µM, I: 70 µM)

a = COc1ccc(CNCCOC(c2ccccc2)c2ccc(Cl)cc2)cc1 (centres unmarked) [Compound 3.9]
b = COc1ccc(CCCCNCCC(c2ccccc2)c2ccc(Cl)cc2)cc1 (centres unmarked) [Compound 3.21]
Prompt: In terms of reported IC50, does a or b have the smaller number? Could you answer with the label of the item you picked?
Response: a
(a: 3.8 µM, b: 30 µM)

I = COc1ccc(CCCNCCOC(c2ccccc2)c2ccc(Cl)cc2)cc1 (centres unmarked) [Compound 3.4]
II = COc1ccc(CC[N+](C)(C)CCOC(c2ccccc2)c2ccc(Cl)cc2)cc1 (centres unmarked) [Compound 3.16]
III = COc1ccc(C(O)CCCCOC(c2ccccc2)c2ccc(Cl)cc2)cc1 (centres unmarked) [Compound 3.5]
Prompt: Sequence the entries by IC50, beginning with the highest number. Reply format: the labels, ordered as requested.
Response: III, II, I
